Method: Cmax in mouse at 10 mg/kg, po
Format: ADME, organism-based
Experimental Setup: in vivo
# reported Cmax; entries follow

Compound | Cmax [ng/mL]
O=C1CN(c2c(O)cc3c(c2F)CCN(CCC2CC2)CC3)S(=O)(=O)N1 | 328
O=C1CN(c2c(O)cc3c(c2F)CCN(CC2CC2)CC3)S(=O)(=O)N1 | 899
CCN1CCc2cc(O)c(N3CC(=O)NS3(=O)=O)c(F)c2CC1 | 4750
CN1CCc2cc(O)c(N3CC(=O)NS3(=O)=O)c(F)c2CC1 | 2290
O=C1CN(c2c(O)cc3c(c2F)CCN(CCCC2CC2)CC3)S(=O)(=O)N1 | 621
CC1Cc2c(cc(O)c(N3CC(=O)NS3(=O)=O)c2F)CCN1 (racemic) | 392
CC(C)CCN[C@@H]1CCc2cc(O)c(N3CC(=O)NS3(=O)=O)c(F)c2C1 | 78
